Biological target: Orexin/Hypocretin receptor type 1 (Homo sapiens)
Experiment: antagonists of human orexin 1 receptor (OX1R) (AID 485270);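 also: 0% = agonist challenge alone and 100% = reference antagonist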
Details: OX1R-expressing cells, FRET antagonist read-out; at 6.6 µM
The whole screen tested about 330,000 compounds, of which about 5,800 (1.8%) were called active. Rule as the data show it: active = inhibition mostly above about 38% (no sharp cut-off); inactive = mostly below about 40%. What follows is part of a selection rich in actives, with near analogues and random picks from the rest.
// allowed return values: yes (1) for active, no (0) for inactive

>>> answer_label("CCCCN(CC)C(=O)C1CCCN(S(=O)(=O)c2cccc3nsnc23)C1 (stereo not drawn)")
"yes (1)"
>>> answer_label("CCC(CO)Oc1cc(NCc2ccccc2)c2ncn(C3CCCC3)c2c1 (stereo not drawn)")
"no (0)"
>>> answer_label("CC[C@]1(C(=O)OC)[C@H]2C(=O)N(C)C(=O)[C@H]2[C@H]2CN(C)C(=NCc3ccccc3)N21")
"no (0)"
>>> answer_label("CC1CN(C(=O)c2ccc([N+](=O)[O-])s2)CC(C)O1 (stereo not drawn)")
"yes (1)"
>>> answer_label("Cc1ccc(NC(=O)CN(C)C(=O)c2ccc(Cl)c(S(=O)(=O)NCc3ccco3)c2)cc1")
"no (0)"
>>> answer_label("CC(C)(C)OC(=O)C[C@@H]1C/C=C\\C[C@@H](CC(=O)N[C@H](CO)Cc2ccccc2)C(=O)NC[C@@H](c2ccccc2)OC1=O")
"no (0)"
>>> answer_label("O=C(NCc1ccccc1Cl)C1CCCN1S(=O)(=O)c1ccc(F)cc1 (stereo not drawn)")
"no (0)"
>>> answer_label("COCCn1c(C)cc(C(=O)CN2c3cccc4cccc(c34)S2(=O)=O)c1C")
"no (0)"
>>> answer_label("COc1cc(OC)cc(C(=O)NNC(=O)Cc2cccs2)c1")
"no (0)"
>>> answer_label("Cc1nn(-c2ccc([N+](=O)[O-])cc2)c(N)c1-c1ccccc1")
"yes (1)"

-- ask Lab log entry: Cc1nc(-c2ccc([N+](=O)[O-])cc2)c(-c2ccccc2)o1 — outcome as called in the assay?
-- reply no (0)

-- ask Lab log entry: Cc1cccc(NC(=O)C2CCCN2S(=O)(=O)c2ccc(F)cc2)c1C (stereo not drawn) — outcome as called in the assay?
-- reply yes (1)
